Cited source for all entries: the supplement of paper PMC11417369

- Test system: PfAP2-EXP AP2 domain (GST-tagged)
- Protocol text: gcPBM binding intensity (ln(normalized median fluorescence intensity)); higher = stronger DNA binding
Over roughly 25,000 sequences, “ln(normalized median fluorescence intensity)” has its median near 8.6; the highest 2% begin near 10. The full list was thinned out, with the highest values kept by preference.
Readout type: gcPBM binding intensity (ln)

| Sequence text | Readout type | Value observed |
| --- | --- | --- |
| ATATATATATATTTATGTACATATATTTTTTTTTTT [XGTACX_site8558] | gcPBM binding intensity (ln) | 9.73 |
| ATATATATATATATATGTACATATTTTATAACTGTA [XGTACX_site5395] | gcPBM binding intensity (ln) | 10.2 |
| ATATATATATATATATGTACATATATTTTTATTTAT [XGTACX_site3508] | gcPBM binding intensity (ln) | 10.3 |
| TATATACATTTATGTACACACACATATATGTATATT [CACACA_site8971] | gcPBM binding intensity (ln) | 8.59 |
| ATATATATATATGTATGTACACATATTTTTTAACTT [XGTACX_site431] | gcPBM binding intensity (ln) | 10.4 |
| TTTTTTTTTATATTTAGTACATATATATTATTATAT [XGTACX_site3334] | gcPBM binding intensity (ln) | 8.39 |
| TTTTTTTTTTTTTTATGTACATATATATATTTTATT [XGTACX_site6915] | gcPBM binding intensity (ln) | 8.61 |
| CATATATATTTTATATGTACATATATATTTTATATA [XGTACX_site8665] | gcPBM binding intensity (ln) | 8.45 |
| ATATATATATATATATGTACATATTTTTTATTTTAT [XGTACX_site5761] | gcPBM binding intensity (ln) | 10.1 |

###

- Test system: PfAP2-EXP AP2 domain (GST-tagged)
- Protocol text: gcPBM binding intensity (ln(normalized median fluorescence intensity)); higher = stronger DNA binding
In all, about 25,000 sequences were measured (“ln(normalized median fluorescence intensity)”: median about 8.6, highest 2% from about 10 on). This excerpt belongs to a sample that is enriched for the highest values.
Please use YES whenever gcPBM binding intensity (ln) is not below 9, and NO whenever it is.

| Sequence text | Class |
| --- | --- |
| TATATATATATATATGCACACATTTATACAATTTTA [CACACA_site2986] | YES |
| ATTACAAAAAAAAAAAAAAAAAAAAAAAAAAAAAAA [CACACA_negctrl_site448] | NO |
| ATCTAAACCTTTTGAGCACACATATATATATATATA [CACACA_site8526] | YES |
| GCATAAATTATCATAACATAAATATAAAAATATAAT [GTGCAC_negctrl_site55] | NO |
| AAAAAAAAAAAAAATACACACATATATATATATATA [CACACA_site85] | YES |
| TATATATATATATATACATGCATACAATTTTATGAG [TGCATGCA_site466] | YES |
| AAAAAAAATACATACATACACACATATATATATATA [CACACA_site912] | YES |

###

- Tested on: PfAP2-EXP AP2 domain (GST-tagged)
- Protocol text: gcPBM binding intensity (ln(normalized median fluorescence intensity)); higher = stronger DNA binding
Whole data set: some 25,000 sequences, median “ln(normalized median fluorescence intensity)” near 8.6, cut for the highest 2% near 10. The list comes from a sample in which the highest values are over-represented; it also holds close analogues and randomly drawn sequences.
Please use label 1 whenever gcPBM binding intensity (ln) is not below 9, and label 0 whenever it is.

| Sequence text | Measured on | Class |
| --- | --- | --- |
| TTTTTTTTTTTTAATACACACATATATATATTTATT [CACACA_site3994] | PfAP2-EXP AP2 domain (GST-tagged) | label 0 |
| AATATATTTTAATACACACACACATATATATATATA [CACACA_site5969] | PfAP2-EXP AP2 domain (GST-tagged) | label 1 |
| TAGTAATATGTATCCATACACACATACATTTTATTT [CACACA_site873] | PfAP2-EXP AP2 domain (GST-tagged) | label 0 |
| CATATATATATATATACACACATATATATTTTCTTT [CACACA_site1457] | PfAP2-EXP AP2 domain (GST-tagged) | label 0 |
| TAAAAAATAAGATATACACACATATATATATATATA [CACACA_site2324] | PfAP2-EXP AP2 domain (GST-tagged) | label 1 |
| CATACATATATTATTGCACACATATAAAATACCCCC [CACACA_site9292] | PfAP2-EXP AP2 domain (GST-tagged) | label 1 |
| TTTTTATTTGGTTGTGTACACATATATATATATATA [CACACA_site5844] | PfAP2-EXP AP2 domain (GST-tagged) | label 1 |
| AAAAAAAAAAAAAATACACACATATAAATATAAATA [CACACA_site6189] | PfAP2-EXP AP2 domain (GST-tagged) | label 0 |
| ACAAATAAGTTTTATACACACATATAAGTAAATACA [CACACA_site4157] | PfAP2-EXP AP2 domain (GST-tagged) | label 0 |
| AATGATACACATATATGTACATATATATATATATAT [XGTACX_site5391] | PfAP2-EXP AP2 domain (GST-tagged) | label 1 |
| GTATAAAAGTTATATACACACAACAGAATTACATAT [CACACA_site6212] | PfAP2-EXP AP2 domain (GST-tagged) | label 0 |
| GTGTAATATATTTTTCGTACATATTATATATATATA [XGTACX_site1675] | PfAP2-EXP AP2 domain (GST-tagged) | label 1 |
| TATATATATATATATATACACACTTGTGCAGAATAT [CACACA_site2216] | PfAP2-EXP AP2 domain (GST-tagged) | label 1 |
| AAAAATAAGATATATACACACATATAAATATAAATA [CACACA_site7396] | PfAP2-EXP AP2 domain (GST-tagged) | label 0 |
| TATATATATATATATACACACTTGTGCAGAATATTA [CACACA_site5257] | PfAP2-EXP AP2 domain (GST-tagged) | label 1 |
| GTTTATATTTAATTTTTTTGTTTTTTTGTGTAATTC [XGTACX_negctrl_site194] | PfAP2-EXP AP2 domain (GST-tagged) | label 0 |
| TACAGATATTATTGCACACATATAAAATACCCCCAA [CACACA_site6014] | PfAP2-EXP AP2 domain (GST-tagged) | label 1 |
| AATATATATTTGTGTACACATTATATATATATATAT [CACACA_site6103] | PfAP2-EXP AP2 domain (GST-tagged) | label 1 |
| TAAAAAATAAAATACACACACATATATATATATATA [CACACA_site1323] | PfAP2-EXP AP2 domain (GST-tagged) | label 1 |
| TTTTTTTTTTTTTTTTGTACATAAATTTTTATTAGA [XGTACX_site6409] | PfAP2-EXP AP2 domain (GST-tagged) | label 0 |
| TTTATTAATTTATAGTGTACATATTAATAATATATT [XGTACX_site7949] | PfAP2-EXP AP2 domain (GST-tagged) | label 0 |
| TAAAATGTAATCTGAACACACATATTTTTTTAATAT [CACACA_site1768] | PfAP2-EXP AP2 domain (GST-tagged) | label 0 |
| TTTCGTAACTATTTGTGTACATATATATATATATAT [XGTACX_site2920] | PfAP2-EXP AP2 domain (GST-tagged) | label 1 |
| AGGATATATAAGTATACACACATATTTATATTTATA [CACACA_site6239] | PfAP2-EXP AP2 domain (GST-tagged) | label 0 |
| TAAAAAATAAGATATACACACATATATTTATTTATA [CACACA_site7158] | PfAP2-EXP AP2 domain (GST-tagged) | label 0 |
| ATATATTTATTATTAGGTACACATATATATATATAT [XGTACX_site5045] | PfAP2-EXP AP2 domain (GST-tagged) | label 1 |
| TTATATTTTTACAAGAGTACATATATATATATATAT [XGTACX_site5383] | PfAP2-EXP AP2 domain (GST-tagged) | label 1 |
| TAATGATAAATACATACACACAAAAAATGATATATA [CACACA_site7258] | PfAP2-EXP AP2 domain (GST-tagged) | label 0 |
| ATACAATGATATATACATATATATATATATATATAT [TGCATGCA_negctrl_site359] | PfAP2-EXP AP2 domain (GST-tagged) | label 1 |
| TTTATTTTGTAGTGTACACATATATATATATATATA [CACACA_site5843] | PfAP2-EXP AP2 domain (GST-tagged) | label 1 |
